Consider the following binders; for each one, report its FRET Peptide Cleavage IC50.
# measured target: labeled peptide representing the N-terminus of PAR-2 (FRET assay)
# assay comment: cell-based or functional assay

Q: Which FRET Peptide Cleavage IC50 value is on record for Ab5151 IgG4_Pro (cross-cloned: light chain of Ab4999 with heavy chain of Ab5007) (antibody, V domains shown, IgG4_Pro format) VH: QVQLVESGGGLVQPGGSLRLSCAASGFTFSSYAMNWVRQAPGKGLEWVSAISFSGHLTGYADSVKGRFTISRDNSKNTLYLQMNSLRAEDTAVYYCARIQNDPMDVWGQGTLVTVSS VL: DIELTQPPSVSVAPGQTARISCSGDNLGKKYVQWYQQKPGQAPVLVIYDDSNRPSGIPERFSGSNSGNTATLTISGTQAEDEADYYCQTWDYSSIRDETNVFGGGTKLTVLG ?
Ans: < 30 nM

Q: And for Ab4997 IgG4_Pro (antibody, V domains shown, IgG4_Pro (human IgG4 constant regions, Ser241Pro hinge), lambda; also called IgG4p Ab4997) VH: QVQLVESGGGLVQPGGSLRLSCAASGFTFSSYAMNWVRQAPGKGLEWVSAISYNGKLKGYADSVKGRFTISRDNSKNTLYLQMNSLRAEDTAVYYCARIQNDPMDVWGQGTLVTVSS VL: DIELTQPPSVSVAPGQTARISCSGDNLGKKYVQWYQQKPGQAPVLVIYDDSNRPSGIPERFSGSNSGNTATLTISGTQAEDEADYYCSSWDVGSDGWVFGGGTKLTVLG ?
Ans: < 30 nM
